Measured median fluorescence values are reported for all entries that follow.
Molecular target: T1, FZD10 cysteine-rich domain (CRD), MYC-tagged and GPI-anchored on CHO cells (human, UniProt Q9ULW2 30-156, GPI anchor)
T1 construct: also called FZD10 CRD; CHO-myc-FZDGPI; not shown: MYC tag and GPI anchor signal
T1 sequence: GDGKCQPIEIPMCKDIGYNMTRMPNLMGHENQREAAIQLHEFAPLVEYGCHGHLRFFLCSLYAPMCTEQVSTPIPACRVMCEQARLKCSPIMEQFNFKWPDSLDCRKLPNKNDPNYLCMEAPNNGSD
Assay: flow cytometry, CHO-CRD cells;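 also: flow cytometry of Fab binding to CHO cells overexpressing a Frizzled CRD, with binding defined as median fluorescence over twice that of CHO cells lacking any Frizzled CRD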
The answer should be a number; do not append a unit.

Fab-2909 (Fab, V domains shown, Fab; also called Fv-2909) VH: EVQLVESGGGLVQPGGSLRLSCAASGFNISSSYMHWVRQAPGKGLEWVASISSSSGYTSYADSVKGRFTISADTSKNTAYLQMNSLRAEDTAVYYCARTVRGSKKPYFSGWAMDYWGQGTLVTVSS VL: DIQMTQSPSSLSASVGDRVTITCRASQSVSSAVAWYQQKPGKAPKLLIYSASSLYSGVPSRFSGSRSGTDFTLTISSLQPEDFATYYCQQSWSYHYLITFGQGTKVEIK
2.71

Q: Input Fab-2930 (Fab, V domains shown, Fab; also called Fv-2930) VH: EVQLVESGGGLVQPGGSLRLSCAASGFNLSYYYIHWVRQAPGKGLEWVASIYPYSGSTSYADSVKGRFTISADTSKNTAYLQMNSLRAEDTAVYYCARGALDYWGQGTLVTVSS VL: DIQMTQSPSSLSASVGDRVTITCRASQSVSSAVAWYQQKPGKAPKLLIYSASSLYSGVPSRFSGSRSGTDFTLTISSLQPEDFATYYCQQWYGPYLITFGQGTKVEIK , output reported median fluorescence.
Result: 4.37

Q: Please report the measured median fluorescence for Fab-2928 (Fab, V domains shown, Fab; also called Fv-2928) VH: EVQLVESGGGLVQPGGSLRLSCAASGFNISYSSIHWVRQAPGKGLEWVASIYPSYSSTYYADSVKGRFTISADTSKNTAYLQMNSLRAEDTAVYYCARYYAMDYWGQGTLVTVSS VL: DIQMTQSPSSLSASVGDRVTITCRASQSVSSAVAWYQQKPGKAPKLLIYSASSLYSGVPSRFSGSRSGTDFTLTISSLQPEDFATYYCQQAFYYPITFGQGTKVEIK
Result: 3.96

Q: For the binder Fab-2900 (Fab, V domains shown, Fab; also called Fv-2900) VH: EVQLVESGGGLVQPGGSLRLSCAASGFNLSSYYIHWVRQAPGKGLEWVASISSSSSSTSYADSVKGRFTISADTSKNTAYLQMNSLRAEDTAVYYCARGALDYWGQGTLVTVSS VL: DIQMTQSPSSLSASVGDRVTITCRASQSVSSAVAWYQQKPGKAPKLLIYSASSLYSGVPSRFSGSRSGTDFTLTISSLQPEDFATYYCQQWYSGSSLFTFGQGTKVEIK , give its reported median fluorescence.
Result: 3.25

Q: Indicate the recorded median fluorescence value for this binder: Fab-2921 (Fab, V domains shown, Fab) VH: EVQLVESGGGLVQPGGSLRLSCAASGFNISYYYIHWVRQAPGKGLEWVASIYPSSGSTSYADSVKGRFTISADTSKNTAYLQMNSLRAEDTAVYYCARGAMDYWGQGTLVTVSS VL: DIQMTQSPSSLSASVGDRVTITCRASQSVSSAVAWYQQKPGKAPKLLIYSASSLYSGVPSRFSGSRSGTDFTLTISSLQPEDFATYYCQQWYAGSLITFGQGTKVEIK
Result: 2.48
